Tested on: 519858-162-T-J1-PDC complex spheroid growth, % test/control
assay-details: Anticancer human tumor 519858-162-T-J1-PDC patient-derived colon adenocarcinoma cell line growth inhibition [Asc]
measurement-conditions: second compound 0.01 µM; first compound 0.0316 µM; stronger effect = lower value
Description: Multicellular complex tumor spheroid response to apoptosis pathway targeting inhibitors Alrizomadlin, Pelcitoclax, and Dasminapant in combination with a variety of drugs and investigational agents in selected tumor cell lines […] Compounds. […] If the clinical Cmax for an agent had not been determined, the highest concentration tested was 10 microM. […]
metric: viability, T/C (%)
Number in %, nothing else.

As a guide, the following entries are already answered.
compound="NC1CCC(NC2CC2c2ccccc2)CC1 (stereo not drawn) + CNC(C)C(=O)NC1CN(S(=O)(=O)c2cccc(S(=O)(=O)N3CCC4CCC(C(=O)NC(c5ccccc5)c5ccccc5)N4C(=O)C(NC(=O)C(C)NC)C3)c2)CCC2CCC(C(=O)NC(c3ccccc3)c3ccccc3)N2C1=O" study_system="519858-162-T-J1-PDC complex spheroid growth, % test/control" assay_result=109
compound="COc1c(OCCCN2CCOCC2)ccc2c3n(c(=NC(=O)c4cnc(N)nc4)nc12)CCN3 + CNC(C)C(=O)NC1CN(S(=O)(=O)c2cccc(S(=O)(=O)N3CCC4CCC(C(=O)NC(c5ccccc5)c5ccccc5)N4C(=O)C(NC(=O)C(C)NC)C3)c2)CCC2CCC(C(=O)NC(c3ccccc3)c3ccccc3)N2C1=O" study_system="519858-162-T-J1-PDC complex spheroid growth, % test/control" assay_result=85.4

# input for lookup
Return viability, T/C for the following compound: C#Cc1c(F)ccc2cc(O)cc(-c3ncc4c(N5CC6CCC(C5)N6)nc(OCC56CCCN5CC(F)C6)nc4c3F)c12 (stereo not drawn) + CNC(C)C(=O)NC1CN(S(=O)(=O)c2cccc(S(=O)(=O)N3CCC4CCC(C(=O)NC(c5ccccc5)c5ccccc5)N4C(=O)C(NC(=O)C(C)NC)C3)c2)CCC2CCC(C(=O)NC(c3ccccc3)c3ccccc3)N2C1=O
97.8

====

Tested on: 519858-162-T-J1-PDC complex spheroid growth, % test/control
assay-details: Anticancer human tumor 519858-162-T-J1-PDC cell line growth inhibition [Asc];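 also: seven day drug exposure begun three days after spheroid seeding; 100% = DMSO vehicle wells and lower values mean less viable spheroid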
measurement-conditions: second compound 0.0316 µM; first compound 0.0316 µM; stronger effect = lower value
viability, T/C for assorted molecules

As a guide, the following entries are already answered.
molecule="CNC(C)C(=O)NC1CN(S(=O)(=O)c2cccc(S(=O)(=O)N3CCC4CCC(C(=O)NC(c5ccccc5)c5ccccc5)N4C(=O)C(NC(=O)C(C)NC)C3)c2)CCC2CCC(C(=O)NC(c3ccccc3)c3ccccc3)N2C1=O (stereo unspecified) + Cc1c(S(C)(=O)=O)c(-c2cc(F)cc(N3CCN(c4ccc(NS(=O)(=O)c5ccc(NC(CCN6CCC(C(=O)OCCCP(=O)(O)O)CC6)CSc6ccccc6)c(S(=O)(=O)C(F)(F)F)c5)cc4)CC3)c2)c(-c2ccc(Cl)cc2)n1C(C)C" study_system="519858-162-T-J1-PDC complex spheroid growth, % test/control" metric="viability, T/C" assay_result=45%
molecule="C=CC(=O)N1CCN(c2nc(=O)n(-c3c(C)ccnc3C(C)C)c3nc(-c4c(O)cccc4F)c(F)cc23)C(C)C1 (stereo unspecified) + CNC(C)C(=O)NC1CN(S(=O)(=O)c2cccc(S(=O)(=O)N3CCC4CCC(C(=O)NC(c5ccccc5)c5ccccc5)N4C(=O)C(NC(=O)C(C)NC)C3)c2)CCC2CCC(C(=O)NC(c3ccccc3)c3ccccc3)N2C1=O" study_system="519858-162-T-J1-PDC complex spheroid growth, % test/control" metric="viability, T/C" assay_result=104%

Assign viability, T/C to the following record: O=C(c1ccc(F)c(F)c1Nc1ccc(I)cc1F)N1CC(O)([C@@H]2CCCCN2)C1 + Cc1c(S(C)(=O)=O)c(-c2cc(F)cc(N3CCN(c4ccc(NS(=O)(=O)c5ccc(NC(CCN6CCC(C(=O)OCCCP(=O)(O)O)CC6)CSc6ccccc6)c(S(=O)(=O)C(F)(F)F)c5)cc4)CC3)c2)c(-c2ccc(Cl)cc2)n1C(C)C
78.6%

Return viability, T/C (reported value) for this molecule: NC1CCC(NC2CC2c2ccccc2)CC1 (stereo unspecified) + Cc1c(S(C)(=O)=O)c(-c2cc(F)cc(N3CCN(c4ccc(NS(=O)(=O)c5ccc(NC(CCN6CCC(C(=O)OCCCP(=O)(O)O)CC6)CSc6ccccc6)c(S(=O)(=O)C(F)(F)F)c5)cc4)CC3)c2)c(-c2ccc(Cl)cc2)n1C(C)C
115%

In one line, give reported viability, T/C of the entry COc1c(OCCCN2CCOCC2)ccc2c3n(c(=NC(=O)c4cnc(N)nc4)nc12)CCN3 + Cc1c(S(C)(=O)=O)c(-c2cc(F)cc(N3CCN(c4ccc(NS(=O)(=O)c5ccc(NC(CCN6CCC(C(=O)OCCCP(=O)(O)O)CC6)CSc6ccccc6)c(S(=O)(=O)C(F)(F)F)c5)cc4)CC3)c2)c(-c2ccc(Cl)cc2)n1C(C)C .
74.9%

Return viability, T/C for the following molecule: O=C(c1cc(Cc2n[nH]c(=O)c3ccccc23)ccc1F)N1CCN(C(=O)C2CC2)CC1 + Cc1c(S(C)(=O)=O)c(-c2cc(F)cc(N3CCN(c4ccc(NS(=O)(=O)c5ccc(NC(CCN6CCC(C(=O)OCCCP(=O)(O)O)CC6)CSc6ccccc6)c(S(=O)(=O)C(F)(F)F)c5)cc4)CC3)c2)c(-c2ccc(Cl)cc2)n1C(C)C
68.1%
